target: human MRGPRX4-83L (Homo sapiens); construct: host or cells: CHO β-arrestin cells; test: β-arrestin assay (CHO β-arrestin ARMS1-ProLink 2 human MRGPRX4 83L); format: cell-based; settings: Table 1; β-arrestin recruitment, CHO cells, MRGPRX4-83L; means of 3-4 experiments; read-out: EC50 ± SEM
Sequence (Q96LA9 whole entry): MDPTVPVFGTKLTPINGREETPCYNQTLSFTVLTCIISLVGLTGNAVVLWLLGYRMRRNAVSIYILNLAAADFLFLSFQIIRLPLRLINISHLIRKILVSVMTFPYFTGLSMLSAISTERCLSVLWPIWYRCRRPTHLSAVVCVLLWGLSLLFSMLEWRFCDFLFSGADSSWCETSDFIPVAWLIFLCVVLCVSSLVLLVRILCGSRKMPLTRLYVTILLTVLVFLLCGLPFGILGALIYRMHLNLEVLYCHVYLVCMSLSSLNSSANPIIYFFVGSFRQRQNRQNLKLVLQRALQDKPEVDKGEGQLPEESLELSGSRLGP
Doc: threshold 0.1 µM (exclusive). Items with EC50 beneath it return Condition met; others return Condition not met.

Lab log: compare recorded EC50 with 0.1 µM; is it strictly lower for CCOP(=O)(CCCCn1c(=O)n(CC)c(=O)c2[nH]c(C3CC3c3ccccc3)nc21)OCC (stereo not drawn) ? Condition not met

Given C#CCn1c(=O)c2[nH]c(CCc3cccc(Br)c3)nc2n(CCCCP(=O)(O)O)c1=O , is recorded EC50 strictly lower than 0.1 µM? Condition not met

Threshold test, EC50 < 0.1 µM: C#CCn1c(=O)c2[nH]c(CCc3ccccc3OC)nc2n(CCCCP(=O)(O)O)c1=O Condition not met

Hello, I'm reviewing records and need to know if EC50 of C#CCn1c(=O)c2[nH]c(CCc3cccc(C(F)(F)F)c3)nc2n(CCCCP(=O)(O)O)c1=O is below 0.1 µM. Could you check? Condition not met

Hello, I'm reviewing records and need to know if EC50 of C#CCn1c(=O)c2[nH]c(CCc3ccc(OC)c(OC)c3)nc2n(CCCCP(=O)(OCC)OCC)c1=O is below 0.1 µM. Could you check? Condition not met

Consider the compound C#CCn1c(=O)c2c(nc(CCc3cccc(OC)c3)n2C)n(CCCOP(=O)(O)O)c1=O [H-1, reference compound] . Is its EC50 strictly less than 0.1 µM? Condition not met

Please state whether EC50 is below 0.1 µM for CCn1c(=O)c2[nH]c(CCc3ccc(F)cc3)nc2n(CCCCP(=O)(O)O)c1=O Condition not met

Regarding C#CCn1c(=O)c2c(nc(CCc3ccccc3Br)n2CCO)n(CCCCP(=O)(O)O)c1=O , kindly confirm whether its EC50 is beneath 0.1 µM. Condition met

Consider C#CCn1c(=O)c2c(nc(CCc3cccc(C(F)(F)F)c3)n2C)n(CCCCP(=O)(OCC)OCC)c1=O . Does its EC50 lie strictly below 0.1 µM? Condition not met

Dear colleague, could you confirm whether EC50 of C#CCn1c(=O)c2[nH]c(/C=C/c3cccc(OC)c3)nc2n(CCCOP(=O)(O)O)c1=O [H-3, reference compound] falls below 0.1 µM? Thanks. Condition not met

Quick check: EC50 of C#CCn1c(=O)c2[nH]c(CCc3ccc(OC)c(OC)c3)nc2n(CCCCP(=O)(O)O)c1=O under 0.1 µM? Condition not met
